- System: NCI-H460 lung
- TEST SUMMARY: NCI-60 one-dose screen, 48 h (100 = growth as untreated, 0 = no growth, -100 = all killed)
- MEASUREMENT SETUP: 10 µM unless noted
The panel holds about 83,000 compounds, 20% with a hit somewhere; the sample as a whole holds those more often.
QUANTITY NAME: growth (%)
Response body: numeric value in %, unit text excluded.

Oc1ccc(Cl)c(Nc2nc(SCCN3CCOCC3)nc3c2cnn3CC(Cl)c2ccc(Br)cc2)c1 (centres undefined): 10.1
COC(=O)c1c(C(=O)OC)c2c3ccccc3c3ccccc3n2c1C(=O)C(C)(C)C: 80.3
NS(=O)(=O)c1ccc(N2N=C(c3ccc(NC(=O)Nc4ccccc4)cc3)CC2c2ccc(Br)cc2)cc1 (centres undefined): -83.9
Cn1cc(-c2cc(N)n3nc(-c4c[nH]c5ccc(Cl)cc45)cc3n2)c2cccnc21: -47
O=C1Nc2ccccc2/C1=C\c1ccc(OCC(=O)c2ccc(Br)cc2)cc1: 58.5
COc1ccc(N=Nc2c(N)nn3c(N)c(C#N)c(-c4ccccc4)nc23)cc1: 16.1
Oc1cncc(-c2ccc3ncnc(N4CCc5cc(F)c(Cl)cc54)c3c2)c1: 39.2
N#CC1=C(c2cccs2)Nc2c(c(-c3ccccc3)nn2-c2ccccc2)C12C(=O)Nc1ccc(Cl)cc12 (centres undefined): 6.17

Next molecule, growth to be filled in.
The reported NCI-H460 lung growth of COc1cc(C2CC(c3ccc(Cl)cc3)=Nc3c(N)nc(N)nc3N2)ccc1Oc1nc(Nc2ccc(F)cc2)nc(N(C)C)n1 (centres undefined) is 13.5

---

- Test system: SR leukemia
- TEST SUMMARY: NCI-60 one-dose screen, 48 h (100 = growth as untreated, 0 = no growth, -100 = all killed)
- MEASUREMENT SETUP: 10 µM unless noted
About 83,000 compounds went through this panel and 20% of them were active in at least one assay; those are over-represented in the sample as a whole.
QUANTITY NAME: growth (%)
Response body: numeric value in %, unit text excluded.

Here are 3 compounds together with their reported answers.
O=C(CSc1nc2sc3c(c2c(=O)n1-c1ccc(Cl)cc1)CCCC3)NNC(=O)c1ccc(Br)cc1: 34.4
CN(C)c1ccc(/C=C/c2n(Cc3ccc4ccccc4c3)c3ccccc3[n+]2Cc2ccc3ccccc3c2)cc1: -29.3
CCOc1ccc2[nH]c(=O)c(C(c3nnnn3CC3CCCO3)N3CCN(Cc4ccccc4)CC3)cc2c1 (centres undefined): 111

Recorded result, `Cc1ccc2c(c1)/C(=C/C(=O)c1cc3ccccc3oc1=O)C(=O)N2` , growth: 6.51

Recorded result, `COc1ccc(-c2cc(C(=O)Oc3ccc(C=O)cc3OC)nn2-c2ccc(S(C)(=O)=O)cc2)cc1` , growth: 84.9

Recorded result, `O=C1N/C(=N\c2nccs2)S/C1=C\c1ccc([N+](=O)[O-])cc1` , growth: 25.5

Recorded result, `O=C(NNC(=O)c1ccc(OCc2nc3ccc(Cl)cc3[nH]2)cc1)Nc1ccc(Cl)c(Cl)c1` , growth: 69.3

Recorded result, `O=C(N/N=C/c1ccc(Br)o1)c1[nH]c2ccc(Br)cc2c1-c1ccccc1` , growth: 5.02

Recorded result, `CN1C(=O)/C(=C/c2ccco2)S/C1=N/c1nccs1` , growth: 89.5
